We begin with a simple list: items and their reported Ki.
Assayed System: Adrenergic receptor alpha-1 (Rattus norvegicus, UniProt P15823+P23944+P43140)
Test Details: In vitro binding affinity was evaluated on alpha-1 adrenergic receptor from rat cerebral cortex by using [3H]prazosin as radioligand
Type: tissue-based

Sample answers from the record:
Assign Ki to the following record: `O=C1CC(=C2c3ccccc3-c3ccccc32)C(=O)N1CCCCN1CCN(c2cccc(C(F)(F)F)c2)CC1`
> 10 µM

Assign Ki to the following record: `O=C1CC(=C2c3ccccc3-c3ccccc32)C(=O)N1CCN1CCN(c2cccc(Cl)c2)CC1`
> 10 µM

Proceeding to the next compound to report its Ki.
Assign Ki to the following record: `O=C1CC(=C2c3ccccc3-c3ccccc32)C(=O)N1CCCCN1CCN(c2ccccc2)CC1`
0.06 µM

---

We begin with a simple list: items and their reported log10 of Ki.
Assayed System: Adrenergic receptor alpha-1 (Rattus norvegicus, UniProt P15823+P23944+P43140)
Sequence (P15823 whole entry): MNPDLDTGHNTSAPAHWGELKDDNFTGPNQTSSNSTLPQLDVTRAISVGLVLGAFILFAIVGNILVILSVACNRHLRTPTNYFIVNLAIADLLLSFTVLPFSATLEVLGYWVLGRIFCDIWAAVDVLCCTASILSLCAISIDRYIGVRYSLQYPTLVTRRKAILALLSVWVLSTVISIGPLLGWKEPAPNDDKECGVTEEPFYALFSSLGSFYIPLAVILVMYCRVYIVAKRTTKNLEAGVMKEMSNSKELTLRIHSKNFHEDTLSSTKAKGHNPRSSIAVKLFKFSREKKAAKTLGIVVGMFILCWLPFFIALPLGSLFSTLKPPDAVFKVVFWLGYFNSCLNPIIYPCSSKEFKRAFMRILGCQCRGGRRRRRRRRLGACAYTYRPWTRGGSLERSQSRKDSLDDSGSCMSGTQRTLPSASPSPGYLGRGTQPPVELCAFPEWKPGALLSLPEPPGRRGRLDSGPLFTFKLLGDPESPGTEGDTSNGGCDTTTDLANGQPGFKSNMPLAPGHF
Sequence (P23944 whole entry): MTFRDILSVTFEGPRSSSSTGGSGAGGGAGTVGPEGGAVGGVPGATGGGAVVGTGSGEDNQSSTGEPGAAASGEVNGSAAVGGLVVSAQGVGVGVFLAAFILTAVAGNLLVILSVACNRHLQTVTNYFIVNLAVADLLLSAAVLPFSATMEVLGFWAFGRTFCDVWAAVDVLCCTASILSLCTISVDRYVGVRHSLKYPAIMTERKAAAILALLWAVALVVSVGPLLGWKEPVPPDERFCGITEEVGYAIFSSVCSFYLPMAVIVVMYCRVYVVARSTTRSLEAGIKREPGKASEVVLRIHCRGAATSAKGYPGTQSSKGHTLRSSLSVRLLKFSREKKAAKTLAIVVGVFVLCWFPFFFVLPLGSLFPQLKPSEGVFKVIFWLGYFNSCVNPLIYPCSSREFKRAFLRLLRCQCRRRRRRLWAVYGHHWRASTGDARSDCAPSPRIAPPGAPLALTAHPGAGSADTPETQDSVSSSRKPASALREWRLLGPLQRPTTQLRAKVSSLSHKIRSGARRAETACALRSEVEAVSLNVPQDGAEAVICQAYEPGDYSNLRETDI
Sequence (P43140 whole entry): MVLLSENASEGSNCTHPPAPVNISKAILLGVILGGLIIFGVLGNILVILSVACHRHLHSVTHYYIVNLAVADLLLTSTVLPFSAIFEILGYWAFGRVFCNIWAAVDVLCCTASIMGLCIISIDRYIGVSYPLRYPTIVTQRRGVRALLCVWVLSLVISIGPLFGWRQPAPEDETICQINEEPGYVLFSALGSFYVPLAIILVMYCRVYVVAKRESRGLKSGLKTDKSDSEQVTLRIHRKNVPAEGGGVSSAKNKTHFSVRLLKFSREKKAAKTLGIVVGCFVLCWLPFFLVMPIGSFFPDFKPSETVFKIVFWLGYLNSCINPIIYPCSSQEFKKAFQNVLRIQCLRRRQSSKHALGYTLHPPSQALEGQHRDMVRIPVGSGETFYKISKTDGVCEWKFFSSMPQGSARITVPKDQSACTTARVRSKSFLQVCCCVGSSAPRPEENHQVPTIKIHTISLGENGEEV
Test Details: In vitro binding affinity was evaluated on alpha-1 adrenergic receptor from rat cerebral cortex by using [3H]prazosin as radioligand
Assay type: tissue-based
Use the decimal logarithm of Ki (nM).

Assign log10 of Ki to the following record: `O=C1CC(=C2c3ccccc3-c3ccccc32)C(=O)N1CN1CCN(c2cccc(C(F)(F)F)c2)CC1`
2.90

Assign log10 of Ki to the following record: `O=C1CC(=C(c2ccccc2)c2ccccc2)C(=O)N1CCCCN1CCN(c2ccc(F)cc2)CC1`
1.71

Assign log10 of Ki to the following record: `O=C1CC(=C2c3ccccc3-c3ccccc32)C(=O)N1CCCCN1CCN(c2cccc(Cl)c2)CC1`
2.40

Assign log10 of Ki to the following record: `O=C1CC(=C2c3ccccc3-c3ccccc32)C(=O)N1CCN1CCN(c2ccccc2)CC1`
2.29

Assign log10 of Ki to the following record: `O=C1CC(=C2c3ccccc3-c3ccccc32)C(=O)N1CCCN1CCN(c2ccc(F)cc2)CC1`
1.79

Assign log10 of Ki to the following record: `COc1ccccc1N1CCN(CCCCN2C(=O)CC(=C3c4ccccc4-c4ccccc43)C2=O)CC1`
1.00

Assign log10 of Ki to the following record: `COc1ccccc1N1CCN(CCN2C(=O)CC(=C3c4ccccc4-c4ccccc43)C2=O)CC1`
1.76

Assign log10 of Ki to the following record: `O=C1CC(=C2c3ccccc3-c3ccccc32)C(=O)N1CN1CCN(c2cccc(Cl)c2)CC1`
2.50

Assign log10 of Ki to the following record: `O=C1CC(=C2c3ccccc3-c3ccccc32)C(=O)N1CCCN1CCN(c2ccccc2)CC1`
2.81

Assign log10 of Ki to the following record: `O=C1CC(=C2c3ccccc3-c3ccccc32)C(=O)N1CCCCN1CCN(c2ccc(F)cc2)CC1`
2.42

Assign log10 of Ki to the following record: `COc1ccccc1N1CCN(CCCN2C(=O)CC(=C3c4ccccc4-c4ccccc43)C2=O)CC1`
2.21

Assign log10 of Ki to the following record: `O=C1CC(=C2c3ccccc3-c3ccccc32)C(=O)N1CCN1CCN(c2ccc(F)cc2)CC1`
1.75

---

Assayed System: D(2) dopamine receptor (Rattus norvegicus, UniProt P61169)
Sequence (P61169 whole entry): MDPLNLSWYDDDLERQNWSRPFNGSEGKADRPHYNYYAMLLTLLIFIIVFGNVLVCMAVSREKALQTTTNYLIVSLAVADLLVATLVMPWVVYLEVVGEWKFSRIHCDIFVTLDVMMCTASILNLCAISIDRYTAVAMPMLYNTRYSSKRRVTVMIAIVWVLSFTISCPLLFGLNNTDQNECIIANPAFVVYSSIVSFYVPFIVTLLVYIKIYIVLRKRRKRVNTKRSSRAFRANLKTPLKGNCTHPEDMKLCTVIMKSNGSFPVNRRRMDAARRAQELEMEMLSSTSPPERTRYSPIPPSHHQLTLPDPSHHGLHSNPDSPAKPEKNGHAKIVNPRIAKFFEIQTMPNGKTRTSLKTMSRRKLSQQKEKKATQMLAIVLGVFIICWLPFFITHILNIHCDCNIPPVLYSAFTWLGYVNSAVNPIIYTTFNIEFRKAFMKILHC
Test Details: In vitro binding affinity towards Dopamine receptor D2 of rat striatal membranes using [3H]- raclopride
pKi: −log10 of the molar value.
Value Type: pKi

Assign pKi to the following record: `O=C1CC(=C2c3ccccc3-c3ccccc32)C(=O)N1CCCCN1CCN(c2cccc(C(F)(F)F)c2)CC1`
< 6.00

Assign pKi to the following record: `O=C1CC(=C2c3ccccc3-c3ccccc32)C(=O)N1CN1CCN(c2cccc(C(F)(F)F)c2)CC1`
< 5.00

Assign pKi to the following record: `COc1ccccc1N1CCN(CCCN2C(=O)CC(=C3c4ccccc4-c4ccccc43)C2=O)CC1`
< 6.00

Assign pKi to the following record: `O=C1CC(=C2c3ccccc3-c3ccccc32)C(=O)N1CCCCN1CCN(c2cccc(Cl)c2)CC1`
< 6.00

Assign pKi to the following record: `O=C1CC(=C2c3ccccc3-c3ccccc32)C(=O)N1CN1CCN(c2cccc(Cl)c2)CC1`
< 5.00

Assign pKi to the following record: `O=C1CC(=C2c3ccccc3-c3ccccc32)C(=O)N1CCCN1CCN(c2cccc(Cl)c2)CC1`
< 5.00

Next:
Assign pKi to the following record: `O=C1CC(=C2c3ccccc3-c3ccccc32)C(=O)N1CCN1CCN(c2cccc(Cl)c2)CC1`
< 5.00

Assign pKi to the following record: `O=C1CC(=C2c3ccccc3-c3ccccc32)C(=O)N1CCCCN1CCN(c2ccc(F)cc2)CC1`
< 5.00

Assign pKi to the following record: `O=C1CC(=C2c3ccccc3-c3ccccc32)C(=O)N1CCN1CCN(c2cccc(C(F)(F)F)c2)CC1`
< 5.00

Assign pKi to the following record: `O=C1CC(=C2c3ccccc3-c3ccccc32)C(=O)N1CN1CCN(c2ccccc2)CC1`
< 5.00

Assign pKi to the following record: `O=C1CC(=C2c3ccccc3-c3ccccc32)C(=O)N1CCN1CCN(c2ccc(F)cc2)CC1`
< 5.00

Assign pKi to the following record: `O=C1CC(=C2c3ccccc3-c3ccccc32)C(=O)N1CCCCN1CCN(c2ccccc2)CC1`
6.40

Assign pKi to the following record: `O=C1CC(=C2c3ccccc3-c3ccccc32)C(=O)N1CCCN1CCN(c2cccc(C(F)(F)F)c2)CC1`
< 5.00

Assign pKi to the following record: `O=C1CC(=C2c3ccccc3-c3ccccc32)C(=O)N1CCCN1CCN(c2ccc(F)cc2)CC1`
< 5.00

Assign pKi to the following record: `O=C1CC(=C2c3ccccc3-c3ccccc32)C(=O)N1CN1CCN(c2ccc(F)cc2)CC1`
< 5.00
